tested on: U251 CNS; assay: NCI-60 one-dose screen, 48 h (100 = growth as untreated, 0 = no growth, -100 = all killed); conditions: 10 µM unless noted
This is part of a sample that, as a whole, favours compounds with a hit. Of some 83,000 tested, about 20% had one in any assay.
growth strictly less than 60% = y. Otherwise n.

Illustrative cases are given below, each with its answer.
INSERT INTO measurements (compound, category) VALUES
  ('CCCCCCNC(=O)Oc1ccc(/C(=C(\C)c2ccccc2)c2ccc(OCCN3CCCCC3)cc2)cc1', 'y'),
  ('Cc1ccc(NC(=O)Cc2ccc(/C=C/C(=O)c3ncc[nH]3)cc2)cc1', 'y'),
  ('Cc1nn(-c2ccccc2)c(Cl)c1/C=N\N=c1/sc2ccccc2n1C', 'n'),
  ('O=C(NCCNc1nccc(-c2c(-c3cccc(F)c3)nc3sccn23)n1)c1ccc(Cl)cc1', 'n'),
  ('Cc1ccc(NC(=O)c2cc(-c3nc4ccccc4s3)c(=O)n(NS(=O)(=O)c3ccc(Cl)cc3)c2N)cc1', 'n');

q: Please let me know if O=C(CNCCN1CCOCC1)N1c2cccc3cccc(c23)N(C(=O)CNCCN2CCOCC2)C1c1cn(-c2ccccc2)nc1-c1cccc([N+](=O)[O-])c1 shows growth below 60%.
a: y

q: Lab note: growth threshold 60%. Does this compound come in strictly under it? O=C1c2ccc3c4c(ccc(c24)C(=O)N1CCCNCc1ccccc1)C(=O)N(CCCNCc1ccccc1)C3=O
a: y

q: Determine if COCCCN1CC(O)=C(c2nc(-c3ccc(C)cc3)cs2)C1=N shows growth strictly lower than 60%.
a: n

q: Does the reported growth of COc1ccc2[nH]c(=O)c(CN3CCN(c4nccc(-c5ccc(Cl)cc5)n4)CC3)cc2c1 stay below 60%?
a: n

q: # strict comparison: is reported growth < 60%? input = NS(=O)(=O)c1ccc(CCN2C(=O)C=CC2=O)cc1
a: n

q: Dear colleague, could you confirm whether growth of CC1=C(C(=O)/C=C/c2c[nH]c3ccccc23)C(c2ccccc2)NC(=S)N1 (stereo unspecified) falls below 60%? Thanks.
a: n

----------
Readings of growth for the listed molecules
system: UACC-257 melanoma; test: NCI-60 one-dose screen, 48 h (100 = growth as untreated, 0 = no growth, -100 = all killed); details: 10 µM unless noted
The panel holds about 83,000 compounds, 20% with a hit somewhere; the sample as a whole holds those more often.
Use % as the unit, but write only the number.

INSERT INTO results (molecule, unit_of_measure, meas_value) VALUES
  ('O=C1Nc2ccccc2/C1=C\c1c(-c2ccccc2)nc2ccccn12', '%', 87.6),
  ('N#CC1=C(N)Oc2c(ccc3ccccc23)C1c1ccccc1Cl (stereo not drawn)', '%', 60.1);

Would you kindly look at the next entry?
Response field growth (UACC-257 melanoma) for item Cc1cccc(C)c1N=c1oc2ccc(Cl)cc2nc1-c1ccccc1O : 90.8

----------
System: HS 578T breast
Experiment: NCI-60 one-dose screen, 48 h
Conditions: 10 µM unless noted
Method: Growth inhibition of the HS 578T human tumor cell line is measured as a screen for anti-cancer activity. Cells are grown in 96 well plates and exposed to the test compound for 48 hours. Compounds are tested at a single concentration, which is 10^-5 M for most compounds. The reported endpoint is percent growth (GI% or GIPRCNT), where numbers from 0 - 100% represent growth inhibition, and numbers from -100% - 0 represent cell death. For example, a value of 40 represents 60% growth inhibition. […]
The panel holds about 83,000 compounds, 20% with a hit somewhere; the sample as a whole holds those more often. The source made the active and inactive calls. The calls were made as follows: active = growth percent below 10; inactive = the rest.
Mark one answer only. Choices: yes (active), no (inactive)

INSERT INTO results (molecule, category) VALUES
  ('Cc1cccc(-c2cn3ccnc3c(-c3ccc4ncn(Cc5ccccc5)c4c3)n2)c1', 'no'),
  ('Cc1ccc(NC(=O)c2cc(-c3nc4ccccc4s3)c(=O)n(NS(=O)(=O)c3ccc(Cl)cc3)c2N)cc1', 'no'),
  ('Cn1ccc2c1CC1CN(Cc3ccco3)C(=O)C1C2C(=O)O (configuration not stated)', 'no'),
  ('COc1ccc(C(C)=O)c(OC)c1', 'no'),
  ('Cc1nn(-c2ccccc2)c(Oc2c(Cl)cccc2Cl)c1/C=N/N=c1\sc2ccccc2n1C', 'no');

q: Returns: the outcome recorded for N#Cc1cccc(-c2ccc3c(c2)NC(=O)/C3=C\c2ccc[nH]2)c1 in this assay.
a: no

q: Assay result, entry O=C1c2ccc3c4c(ccc(c24)C(=O)N1CCCNCc1ccccc1Cl)C(=O)N(CCCNCc1ccccc1Cl)C3=O — outcome?
a: yes

----------
test system: NCI-H460 lung; test: NCI-60 one-dose screen, 48 h (100 = growth as untreated, 0 = no growth, -100 = all killed); conditions: 10 µM unless noted
This is part of a sample that, as a whole, favours compounds with a hit. Of some 83,000 tested, about 20% had one in any assay.
Parameter threshold = 90%. Response is true when growth meets or exceeds it, else false.

Worked cases, answers included:
INSERT INTO measurements (item_smiles, category) VALUES
  ('O=S(=O)(Nc1ccc(-n2cnc3cc(-c4ccc(O)cc4)ccc32)cc1)c1ccccc1', 'true'),
  ('COc1cc(C2=C(c3cn(C)c4ccccc34)COC2=O)cc(OC)c1OC', 'false'),
  ('Fc1ccc2c(-c3cncn3CCc3ccccc3)c[nH]c2c1', 'true'),
  ('CC(=O)Nc1cccc(-c2ccc3c(c2)NC(=O)/C3=C\c2ccc[nH]2)c1', 'false');

# evaluate next
q: growth >= 90% for COc1cc(CC(=O)c2ccc(O)c(OC)c2)ccc1O ?
a: true

----------
system: LOX IMVI melanoma; assay: NCI-60 one-dose screen, 48 h; conditions: 10 µM unless noted
The panel holds about 83,000 compounds, 20% with a hit somewhere; the sample as a whole holds those more often. Activity calls are given as the source filed them. The calls were made as follows: active = growth percent below 10; inactive = the rest.
API: response.call in active, inactive

Solved cases (6 shown):
INSERT INTO measurements (compound, category) VALUES
  ('CCCCCN1C=C/C(=C\C(=O)N(C)c2ccccc2Br)c2ccccc21', 'inactive'),
  ('C=C1C(=O)O[C@H]2[C@H]1CC/C(CNC(=O)CCc1ccc(OC)cc1)=C\CC[C@@]1(C)O[C@@H]21', 'inactive'),
  ('CCCCCN1C=C/C(=C\C(=O)N2CCCc3ccccc32)c2ccccc21', 'inactive'),
  ('COc1cc(NC(C)CCCNC(=O)CCC(=O)NCCCNCCCCCCCCCCNCCCNC(=O)CCC(=O)NCCCC(C)Nc2cc(OC)cc3cccnc23)c2ncccc2c1 (configuration not stated)', 'inactive'),
  ('CCOc1cccc(-c2nc(N)nc(Nc3ccccc3SSc3ccccc3Nc3nc(N)nc(-c4cccc(OCC)c4)n3)n2)c1', 'active'),
  ('COC(=O)C1=C(C(=O)ON)[C@@H]2C=C[C@@]1([C@@H](Cc1ccccc1)Nc1ccccc1)O2', 'inactive');

q: Lab log entry: Cc1cc2c(c(C)c1Cl)C(=O)/C(=C/c1ccc(O)c(O)c1)O2 — outcome as called in the assay?
a: inactive

q: Hey, what did the test say about COC(=O)C(CC=O)C(=O)C(=O)Nc1cccc(C(F)(F)F)c1 (configuration not stated) ?
a: inactive

q: What did this assay record as the result for COc1cc(NC(C)CCCNC(=O)CCC(=O)NCCCNCCCCCCCCNCCCNC(=O)CCC(=O)NCCCC(C)Nc2cc(OC)cc3cccnc23)c2ncccc2c1 (configuration not stated) ?
a: inactive

q: Please state the recorded outcome for this compound: COc1ccc(C(=O)c2cc(C)c(OC)c(C)c2)c(OC)c1OC(=O)C(Cl)Cl
a: inactive

q: Recorded test call requested for C=C(CBr)[C@@H]1CC[C@]2(COC(C)=O)CC[C@]3(C)[C@H](CC[C@@H]4[C@@]5(C)CCCNC(C)(C)[C@@H]5CC[C@]43C)[C@@H]12
a: inactive

q: Dear colleague, could you share the recorded outcome for CCN1Cc2nc3sc(C)c(C)c3c(=O)n2C=C1C when you have a moment?
a: inactive

q: // return assay outcome for N#CC1C(C#N)C(C(=O)c2ccc(Br)cc2)N2c3ccccc3C=CC12 (configuration not stated)
a: inactive

----------
test system: NCI-H322M lung; test: NCI-60 one-dose screen, 48 h; conditions: 10 µM unless noted
Compounds without any hit were thinned out: in the full panel of roughly 83,000, 20% have a hit. Activity calls are given as the source filed them. Rule for the calls: active = growth percent below 10; inactive = the rest.
Reply using exactly one outcome from active, inactive

INSERT INTO assay_data (compound, system_tested, category) VALUES
  ('CCCCCCCCO/N=C\c1c2c(O)c3c(O)c(C)c4c(c3c1O)C(=O)C(C)(O/C=C\C(OC)C(C)C(OC(C)=O)C(C)C(O)C(C)C(O)C(C)/C=C\C=C(\C)C(=O)N2)O4 (configuration not stated)', 'NCI-H322M lung', 'inactive'),
  ('CCOc1ccc(Nc2nc(-c3ccc4c(c3)NC(=O)CO4)cs2)cc1', 'NCI-H322M lung', 'inactive'),
  ('COc1cc2oc(-c3cccc(C(=O)Nc4ccc(Cl)cc4)c3)cc(=O)c2c(O)c1OC', 'NCI-H322M lung', 'inactive');

q: Assay outcome for O=S(=O)(NCCCNc1nccc(-c2c(-c3cccc(F)c3)nc3sccn23)n1)c1cccc(F)c1 : what was it?
a: inactive

q: What did the test return for CCCN1[C@@H]2CC[C@H]1/C(=C\c1ccc(OC)c(OC)c1)C(=O)/C2=C/c1ccc(OC)c(OC)c1 ?
a: inactive

q: Recorded test outcome, item N/C(=N\C(N)=N\c1nc2ccccc2s1)c1cnccn1
a: inactive

q: Tell me the recorded outcome of this test for COc1ccc(OC)c(-c2cc(-c3ccc(Cl)cc3)c3c(N)c(C(=O)c4ccc(Cl)cc4)sc3n2)c1 .
a: inactive

q: Recorded call for COc1ccc(NC(N)=NCCCOc2ccc(F)cc2)cc1 ?
a: inactive

q: Fill in: this test's call for CCOC(=O)/C(C#N)=C1/NNC(=Nc2cccnc2)S1 is ___
a: inactive

q: Returns: the outcome recorded for CC(=O)O[C@H]1Cc2c([nH]c3ccccc23)[C@@H](c2ccc(Cl)cc2)N1C(=O)CCNC(C)(C)C in this assay.
a: inactive

q: Lab log entry: CCC(=O)Oc1ccc(/C(=C(\C)c2ccccc2)c2ccc(OCCN3CCCCC3)cc2)cc1 — outcome as called in the assay?
a: inactive

q: In this assay, the call recorded for CCN(CC)CC[n+]1cc2cc(OC)c(OC)cc2c2ccc3cc4c(cc3c21)OCO4 was what?
a: active
